src = ChEMBL document CHEMBL1201862

test system: UACC-62; assay: NCI tumour cell line growth inhibition, 48 h
Where a name gives a salt, the structure may show the parent alone. Calls of active or inactive are those of the source. Cut-off read from the data, not from the text of the source: active = GI50 up to about 1.1 µM and inactive = higher.
measurement_kind: GI50

// GI50 value for `Cn1c(=O)c(C(c2ccccc2)c2c(O)c3ccccc3n(C)c2=O)c(O)c2ccccc21` : > 100 µM (inactive)

# GI50 (molecule: `CN(C)c1ccc(/C=C(\NC(=O)c2ccccc2)c2nc3ccccc3c(=O)o2)cc1` ) is > 100 µM (inactive)

Item: O=C(CC1C=CCS1(=O)=O)NCc1ccccc1 (centres undefined) | GI50: > 100 µM (inactive)

For `NC(=O)NCc1c(C(N)=O)ncn1Cc1ccccc1` the molecule record lists GI50 as > 100 µM (inactive)

Per the records, this molecule ( CCCCc1oc2ccccc2c1C(=O)c1cc(I)c(OCCN(CC)CC)c(I)c1 [AMIODARONE HYDROCHLORIDE] ) has GI50 equal to 5.28 µM (inactive)

// sample CC(C)[Si](OCC1CC(C#N)OC(C)(C)O1)(C(C)C)C(C)C (centres undefined) , its GI50 was 30.1 µM (inactive)

// `O=C(c1ccco1)N(C(=S)OC12CC3CC(CC(C3)C1)C2)c1ccccc1` : GI50 value = 23.4 µM (inactive)

Lab note: `COc1ccc2cc(CNCCOCCOCCNCc3ccc4cc(OC)ccc4c3)ccc2c1` gave GI50 of 1.78 µM (inactive)

Now take the following molecule into account.
# GI50 (molecule: CCOC(=O)C1=C(C)N(NC(=O)Nc2ccccc2)C2(N)N(NC(=O)Nc3ccccc3)C(C)=C(C(=O)OCC)C12C(=O)OCC (centres undefined) ) is 49.3 µM (inactive)

----------
test system: DMS-114; experiment: NCI tumour cell line growth inhibition, 48 h
Activity calls are given as the source filed them. Cut-off read from the data, not from the text of the source: active = GI50 up to about 1.1 µM and inactive = higher.
measurement_kind: GI50

Recorded results for 5 compounds are shown here.
Quick note, GI50 for `O=C1CCC(c2ccccc2)=NN1c1nc2ccccc2s1` landed at 31 µM (inactive)

The compound listed as CCOC(=O)C(=O)Nc1c(CC)cccc1C(C)CC (configuration not stated) shows GI50 equal to > 100 µM (inactive)

`Cc1ccc(/C=C/C(=O)C(C)C)cc1` yielded GI50 of 42.2 µM (inactive)

Field GI50 (entry CC(C)CCCC(C)[C@H]1CCC2[C@H]3C(CC[C@@]21C)[C@@]1(C)CCC=C[C@]12C[C@@H]2[C@@H]3O (some centres not stated) ) reads > 100 µM (inactive)

Query O=C1OC(Cl)C(N=P(c2ccccc2)(c2ccccc2)c2ccccc2)=C1Cl (configuration not stated) yields GI50 of > 100 µM (inactive)

Further cases:
get_value(item= `CCCCCCCC(=O)O[C@H]1[C@H]2[C@@H](CC1(C)C)C(=O)[C@]13O[C@H]1C(=O)[C@]1(CO1)[C@]23C` , readout=GI50) returns 3.41 µM (inactive)

Entry `C/C(CC(=O)Nc1ccc(C)cc1)=N\NC(N)=S` — recorded GI50 = > 100 µM (inactive)

----------
system: PC-3; experiment: NCI tumour cell line growth inhibition, 48 h
Active and inactive are the calls of the source. No stated cut-off is given here; in the data, active = GI50 up to about 1.1 µM and inactive = higher.
Choose the fitting class; nothing outside active, inactive is accepted.

How did this test come out for `CN(C)c1ccc(/C=C2\C[C@H]3[C@@H]4CC=C5C[C@@H](O)CC[C@]5(C)[C@H]4CC[C@]3(C)C2=O)cc1` ?
inactive

What outcome does the record of this test show for C=CCC1=CC2(OC)C(=O)C(OC)(OC)C1C1C(OC)(OC)C(=O)C(OC)=CC12CC=C (configuration not stated) ?
inactive

Status in this test for COc1cc(C2CC(C)(O)Oc3cc4c(cc32)OCO4)cc(OC)c1OC (configuration not stated) ?
active

Look up the recorded call for `O=C1CCCC2=C1CC1=C(CCCC1=O)N2c1ccc([N+](=O)[O-])cc1` in this test.
inactive

Others:
Name the outcome recorded for `CCCCCCCCOC(=O)c1cc([N+](=O)[O-])c(Sc2[nH]cnc3ncnc2-3)c([N+](=O)[O-])c1` in the assay.
inactive
